Tested on: PC-3
assayComment: Growth inhibition of human PC3 cells at 50 uM after 48 hrs by SRB assay
Type: functional
testParameters: PC-3, 48 h, read-out: GI
Could you please report measured inhibition of growth at 50 µM for the items listed next?
Numbers only, in %.

Worked examples, 2 compounds total:
# compound, targetSystem, uom, inhibition of growth at 50 µM
data = [
    ("NCCNC(=O)COc1cc(OCC(=O)NCCN)c2cc1C(CCc1ccccc1)c1cc(c(OCC(=O)NCCN)cc1OCC(=O)NCCN)C(CCc1ccccc1)c1cc(c(OCC(=O)NCCN)cc1OCC(=O)NCCN)C(CCc1ccccc1)c1cc(c(OCC(=O)NCCN)cc1OCC(=O)NCCN)C2CCc1ccccc1 (stereo not drawn)", "PC-3", "%", 29),
    ("COC(=O)CN1C(=O)CN=C(c2ccccc2)c2cc(Cl)ccc21", "PC-3", "%", 12.3),
]

input: Using known records, supply inhibition of growth at 50 µM for COC(=O)CN1C(=O)CN=C(c2ccccc2)c2cc([N+](=O)[O-])ccc21
output: 22.3
